Molecular target: rat NPRA (Rattus norvegicus, UniProt P18910)
Construct: Full-Length cDNA Cloning and Generation of Cell Lines Overexpressing Natriuretic Peptide Receptors (NPRs); expressed in transfected cells; host or cells: Jump-in T-Rex HEK293 cells, pJTI R4 CMV-TO MCS pA vector, tetracycline induction
Sequence (P18910 29-1057): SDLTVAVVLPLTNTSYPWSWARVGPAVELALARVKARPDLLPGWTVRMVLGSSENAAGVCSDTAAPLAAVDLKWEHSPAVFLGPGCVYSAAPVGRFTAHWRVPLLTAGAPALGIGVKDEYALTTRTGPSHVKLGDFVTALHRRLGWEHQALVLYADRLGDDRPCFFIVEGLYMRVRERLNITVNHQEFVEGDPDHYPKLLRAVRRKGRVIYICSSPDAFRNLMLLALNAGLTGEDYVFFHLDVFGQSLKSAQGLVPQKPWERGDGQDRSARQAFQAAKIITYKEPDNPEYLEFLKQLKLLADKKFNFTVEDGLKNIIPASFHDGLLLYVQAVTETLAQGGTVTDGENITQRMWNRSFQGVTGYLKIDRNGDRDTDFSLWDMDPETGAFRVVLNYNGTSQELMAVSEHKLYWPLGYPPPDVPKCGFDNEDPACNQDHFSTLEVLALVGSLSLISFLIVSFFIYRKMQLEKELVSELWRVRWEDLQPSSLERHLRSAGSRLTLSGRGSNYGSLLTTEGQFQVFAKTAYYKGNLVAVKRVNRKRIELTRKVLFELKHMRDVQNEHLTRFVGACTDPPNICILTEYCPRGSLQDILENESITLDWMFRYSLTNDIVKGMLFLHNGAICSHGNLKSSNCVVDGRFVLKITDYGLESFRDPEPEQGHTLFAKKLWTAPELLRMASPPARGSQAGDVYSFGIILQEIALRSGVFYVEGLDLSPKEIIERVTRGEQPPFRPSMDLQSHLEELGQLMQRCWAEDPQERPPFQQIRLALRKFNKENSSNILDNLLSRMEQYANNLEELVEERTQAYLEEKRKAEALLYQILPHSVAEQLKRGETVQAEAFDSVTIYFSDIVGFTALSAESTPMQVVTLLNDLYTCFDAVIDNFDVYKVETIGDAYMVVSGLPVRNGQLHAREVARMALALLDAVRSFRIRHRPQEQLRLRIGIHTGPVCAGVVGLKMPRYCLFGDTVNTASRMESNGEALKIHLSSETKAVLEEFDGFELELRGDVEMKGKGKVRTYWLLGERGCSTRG
Assay: Rat NPRA cGMP activity assay (HTRF) in HEK293 cells overexpressing NPRA
Assay type: cell-based
Conditions: assay buffer with 0.1% BSA, read-out: cGMP Assay (EC50, pM) w/BSA rNPRA
Numbered stars: 1 amine (or outer) side, 2 acyl side, 3 side chain; on linkers, the order of the positions; unused ones are H or OH. Bridge positions count the residues as written; N and C are the ends. Square brackets hold non-standard residues; d marks the D form. * marks the point of attachment. C20 diacid = O=C(O)CCCCCCCCCCCCCCCCCCC(=O)*; γGlu = O=C(O)[C@H](CCC(=O)[*:2])N[*:1]; Dap = NC[C@H](N)C(=O)O; CH2 = C([*:1])[*:2]
The entries below come with measured EC50 values attached.
measurement.name: EC50 (pM)

INSERT INTO results (substance, system_tested, measured) VALUES
  ('{C20 diacid-γGlu}-EKEKEKGEKPRSSCFG[Dap]RIDRIGHQSGLGCPSFRHGSPSSGAPPPS-NH2 (linker 14-30 via CH2) [Example 137]', 'rat NPRA (Rattus norvegicus, UniProt P18910)', '2.19e+06'),
  ('{C20 diacid-γGlu}-EKEKEKGEKPRSSCFG[Dap]RIDRIGHYSGLGCPSFRHGSPSSGAPPPS-NH2 (linker 14-30 via CH2) [Example 136]', 'rat NPRA (Rattus norvegicus, UniProt P18910)', '2.43e+06');
